Collected inhibition at 50 µg/mL values appear next to each entry.
Test system: Rhizoctonia cerealis
assay.notes: Fungicidal activity, fungi growth rate method, RC
Type: cell-based
experimental.context: Ceratobasidium cereale; 50 μg/mL; read-out: Fungicidal activity, inhibition, RC
Reply numerically in %, unit not repeated.

Example entries begin here.
compound	assay.target	metric	output.unit	number
O=C(NC(Cc1ccccc1)C(=O)N1CCC(c2ccccc2)CC1)c1ccccc1 (stereo not shown)	Rhizoctonia cerealis	inhibition at 50 µg/mL	%	11
O=C(N/C(=C\c1ccccc1)C(=O)N1CCC(O)(c2ccc(Br)cc2)CC1)C1CC1	Rhizoctonia cerealis	inhibition at 50 µg/mL	%	29
CNC(=O)/C(=C/c1csc(C2CCN(C(=O)OC(C)(C)C)CC2)n1)NC(=O)c1ccccc1	Rhizoctonia cerealis	inhibition at 50 µg/mL	%	33
O=C(NCc1cccs1)/C(=C/c1ccccc1)NC(=O)c1ccccc1	Rhizoctonia cerealis	inhibition at 50 µg/mL	%	18

Ask | Param request: inhibition at 50 µg/mL | system Rhizoctonia cerealis | item `O=C(O)/C(=C/c1ccccc1)NC(=O)C1CC1`
Reply | 10

Ask | Param request: inhibition at 50 µg/mL | system Rhizoctonia cerealis | item `O=C(NCc1ccc(C(F)(F)F)cc1)/C(=C/c1ccccc1)NC(=O)c1ccccc1`
Reply | 10

Ask | Param request: inhibition at 50 µg/mL | system Rhizoctonia cerealis | item `Cc1nnsc1/C=C(\NC(=O)c1ccccc1)C(=O)O`
Reply | 18

Ask | Param request: inhibition at 50 µg/mL | system Rhizoctonia cerealis | item `O=C(N/C(=C\c1ccccc1)C(=O)N1CCC(O)(c2ccc(Br)cc2)CC1)c1cccs1`
Reply | 8

* * *

Collected inhibition at 50 µg/mL values appear next to each entry.
System: Physalospora piricola
assay.notes: Fungicidal activity, fungi growth rate method, PP
Format: cell-based
experimental.context: 50 μg/mL; read-out: Fungicidal activity (inhibition) against PP: Physalospora piricola

Example entries begin here.
compound	inhibition at 50 µg/mL
O=C(NC1CCCCC1)/C(=C/c1ccccc1)NC(=O)c1ccccc1	< 20%
O=C(N/C(=C\c1ccccc1)C(=O)N1CCOCC1)c1ccccc1	< 20%
CNC(=O)/C(=C/c1ccccc1)NC(=O)c1ccccc1	< 20%

Ask | For the compound `O=C(NC1CC1)/C(=C/c1ccccc1)NC(=O)c1ccccc1` , report inhibition at 50 µg/mL.
Reply | < 20%

Ask | For the compound `O=C(N/C(=C\c1ccco1)C(=O)N1CCC(O)(c2ccc(Br)cc2)CC1)c1ccccc1` , report inhibition at 50 µg/mL.
Reply | < 20%

Ask | For the compound `O=C(N/C(=C\c1ccccc1)C(=O)N1CCC(O)CC1)c1ccccc1` , report inhibition at 50 µg/mL.
Reply | < 20%

* * *

Test system: wheat Gibberella zeae
assay.notes: microbe, parasite or virus in culture
Assay type: cell-based
experimental.context: Fusarium graminearum, read-out: Fungicidal activity, inhibition, GZ
metric: inhibition at 50 µg/mL (%)
Reply numerically in %, unit not repeated.

Example entries begin here.
molecule	inhibition at 50 µg/mL, %
COC(=O)[C@H]1CCCN1C(=O)/C(=C/c1ccccc1)NC(=O)c1ccccc1	23
O=C(N/C(=C\c1ccccc1)C(=O)N1CCC(O)(c2ccc(Br)cc2)CC1)c1ccc(Br)cc1	29
O=C(NC1CCCCC1)/C(=C/c1ccccc1)NC(=O)c1ccccc1	11
O=C(N/C(=C\c1ccccc1)C(=O)N1CCC(O)CC1)c1ccccc1	43
O=C(NC(Cc1ccccc1)C(=O)N1CCC(O)(c2ccc(Br)cc2)CC1)C1CCCCC1 (stereo not drawn)	29
O=C(NC(Cc1ccccc1)C(=O)N1CCC(O)(c2ccc(Br)cc2)CC1)C1CC1 (stereo not drawn)	43
O=C(NCc1ccc(F)cc1)/C(=C/c1ccccc1)NC(=O)c1ccccc1	34
COc1ccc(C(=O)N/C(=C\c2ccccc2)C(=O)N2CCC(O)(c3ccc(Br)cc3)CC2)cc1	11
O=C(N/C(=C\c1ccccc1)C(=O)N1CCC(O)(c2ccc(Br)cc2)CC1)C1CCNCC1	43
Cc1snnc1/C=C(\NC(=O)c1ccccc1)C(=O)N1CCC(O)(c2ccc(Br)cc2)CC1	77

Ask | For the molecule `O=C(N/C(=C\c1ccccc1C(F)(F)F)C(=O)N1CCC(O)(c2ccc(Br)cc2)CC1)c1ccccc1` , report inhibition at 50 µg/mL.
Reply | 28

Ask | For the molecule `COC(=O)CCNC(=O)/C(=C/c1ccccc1)NC(=O)c1ccccc1` , report inhibition at 50 µg/mL.
Reply | 7

Ask | For the molecule `O=C(O)/C(=C/c1ccccc1)NC(=O)c1ccc(C(F)(F)F)cc1` , report inhibition at 50 µg/mL.
Reply | 17

Ask | For the molecule `CC(C)(C)OC(=O)N1CCC(c2nc(/C=C(\NC(=O)c3ccccc3)C(=O)O)cs2)CC1` , report inhibition at 50 µg/mL.
Reply | 42

Ask | For the molecule `O=C(O)/C(=C/c1ccccc1)NC(=O)C1CC1` , report inhibition at 50 µg/mL.
Reply | 23

Ask | For the molecule `O=C(N/C(=C\c1cccc(C(F)(F)F)c1)C(=O)N1CCC(O)(c2ccc(Br)cc2)CC1)c1ccccc1` , report inhibition at 50 µg/mL.
Reply | 19

Ask | For the molecule `COc1ccc(CNC(=O)/C(=C/c2ccccc2)NC(=O)c2ccccc2)cc1` , report inhibition at 50 µg/mL.
Reply | 42

Ask | For the molecule O=C(N/C(=C\c1ccccc1)C(=O)N1CCC(O)(c2ccc(Br)cc2)CC1)c1ccccc1 [Compound 76, reference compound] , report inhibition at 50 µg/mL.
Reply | 43

Ask | For the molecule `O=C(N/C(=C\c1c[nH]cn1)C(=O)N1CCC(O)(c2ccc(Br)cc2)CC1)c1ccccc1` , report inhibition at 50 µg/mL.
Reply | 2

* * *

Test system: tobacco mosaic virus (TMV)
assay.notes: Anti-TMV inactivation activity (inactivation mode), compound mixed with TMV before inoculation of tobacco leaves
Assay type: in vivo
experimental.context: Tobacco mosaic virus, read-out: Anti-TMV activity, Inactivation effect (inhibition)
metric: inhibition at 100 µg/mL (%)
Reply numerically in %, unit not repeated.

chemical.string	output.unit	inhibition at 100 µg/mL
O=C(N/C(=C\c1ccc(C(F)(F)F)cc1)C(=O)N1CCC(O)(c2ccc(Br)cc2)CC1)c1ccccc1	%	0
O=C(N/C(=C\c1ccccc1)C(=O)N1CCC(O)(c2ccc(Br)cc2)CC1)C1CCNCC1	%	3
O=C(N/C(=C\c1ccccc1)C(=O)N1CCC(O)(c2ccc(Br)cc2)CC1)c1ccc(Cl)cc1	%	31
O=C(NCc1ccc(Cl)cc1)/C(=C/c1ccccc1)NC(=O)c1ccccc1	%	58
O=C(N/C(=C\c1ccccc1)C(=O)N1CCC(O)(c2ccc(Br)cc2)CC1)c1cccc([N+](=O)[O-])c1	%	71
O=C(N/C(=C\c1cccs1)C(=O)N1CCC(O)(c2ccc(Br)cc2)CC1)c1ccccc1	%	1
O=C(NCc1ccccc1Br)/C(=C/c1ccccc1)NC(=O)c1ccccc1	%	31

Now turn to the next molecule.
Ask | Param request: inhibition at 100 µg/mL | system tobacco mosaic virus (TMV) | item `O=C(N/C(=C\c1cccc(C(F)(F)F)c1)C(=O)N1CCC(O)(c2ccc(Br)cc2)CC1)c1ccccc1`
Reply | 58

* * *

Tested on: wheat Gibberella zeae
assay.notes: microbe, parasite or virus in culture
Format: cell-based
experimental.context: Fusarium graminearum, read-out: Fungicidal activity, inhibition, GZ
Collected inhibition at 50 µg/mL values appear next to each entry.
Reply numerically in %, unit not repeated.

Ask | For the compound `CONC(=O)/C(=C/c1csc(C2CCN(C(=O)OC(C)(C)C)CC2)n1)NC(=O)c1ccccc1` , report inhibition at 50 µg/mL.
Reply | 42

Ask | For the compound `O=C(O)/C(=C/c1ccccc1)NC(=O)c1cccs1` , report inhibition at 50 µg/mL.
Reply | 19

Ask | For the compound `O=C(N/C(=C\c1ccccc1)C(=O)N1CCC(O)(c2ccc(Br)cc2)CC1)c1cccs1` , report inhibition at 50 µg/mL.
Reply | 7

* * *

System: Botrytis cinerea
assay.notes: Fungicidal activity, fungi growth rate method, BC
Assay type: cell-based
experimental.context: Botrytis cinerea; 50 μg/mL; read-out: Fungicidal activity, inhibition, BC
metric: inhibition at 50 µg/mL (%)
Reply numerically in %, unit not repeated.

Example entries begin here.
molecule	output.unit	inhibition at 50 µg/mL
CC(C)(C)OC(=O)N1CCC(C(=O)N/C(=C\c2ccccc2)C(=O)N2CCC(O)(c3ccc(Br)cc3)CC2)CC1 [Compound 3]	%	24
O=C(N/C(=C\c1ccccc1)C(=O)N1CCC(O)(c2ccc(Br)cc2)CC1)c1cccs1 [Compound 14]	%	24
Cc1snnc1/C=C(\NC(=O)c1ccccc1)C(=O)N1CCC(O)(c2ccc(Br)cc2)CC1 [Compound 28]	%	24

Ask | For the molecule O=C(NCc1cccs1)/C(=C/c1ccccc1)NC(=O)c1ccccc1 [Compound 58] , report inhibition at 50 µg/mL.
Reply | 18

Ask | For the molecule O=C(NCc1ccc(Br)cc1)/C(=C/c1ccccc1)NC(=O)c1ccccc1 [Compound 46] , report inhibition at 50 µg/mL.
Reply | 9

Ask | For the molecule CNC(=O)/C(=C/c1csc(C2CCN(C(=O)OC(C)(C)C)CC2)n1)NC(=O)c1ccccc1 [Compound 41] , report inhibition at 50 µg/mL.
Reply | 52

Ask | For the molecule CC(C)(C)OC(=O)N1CCC(c2nc(C(=O)NCC(=O)O)cs2)CC1 [Compound 65] , report inhibition at 50 µg/mL.
Reply | 10

Ask | For the molecule O=C(N/C(=C\c1ccccc1)C(=O)N1CCC(O)(c2ccc(Br)cc2)CC1)C1CCCCC1 [Compound 2] , report inhibition at 50 µg/mL.
Reply | 15

Ask | For the molecule CONC(=O)/C(=C/c1ccccc1)NC(=O)c1ccccc1 [Compound 33] , report inhibition at 50 µg/mL.
Reply | 22

Ask | For the molecule O=C(N/C(=C\c1ccc(Br)cc1)C(=O)N1CCC(O)(c2ccc(Br)cc2)CC1)c1ccccc1 [Compound 19] , report inhibition at 50 µg/mL.
Reply | 4

Ask | For the molecule O=C(NC(Cc1ccccc1)C(=O)N1CCC(c2ccccc2)CC1)c1ccccc1 (centres unmarked) [Compound 48] , report inhibition at 50 µg/mL.
Reply | 17

Ask | For the molecule COC(=O)CCCNC(=O)/C(=C/c1ccccc1)NC(=O)c1ccccc1 [Compound 36] , report inhibition at 50 µg/mL.
Reply | 10

Ask | For the molecule COC(=O)CCNC(=O)/C(=C/c1ccccc1)NC(=O)c1ccccc1 [Compound 35] , report inhibition at 50 µg/mL.
Reply | 21

Ask | For the molecule O=C(N/C(=C\c1ccccc1)C(=O)N1CCC(O)(c2ccc(Br)cc2)CC1)c1ccc(Br)cc1 [Compound 8] , report inhibition at 50 µg/mL.
Reply | 18

Ask | For the molecule CCOC(=O)c1csc(C2CCN(C(=O)/C(=C/c3ccccc3)NC(=O)c3ccccc3)CC2)n1 [Compound 30] , report inhibition at 50 µg/mL.
Reply | 17

Ask | For the molecule Cc1nnsc1/C=C1\N=C(c2ccccc2)OC1=O [Compound 77] , report inhibition at 50 µg/mL.
Reply | 12

Ask | For the molecule COC(=O)[C@H](C)NC(=O)/C(=C/c1ccccc1)NC(=O)c1ccccc1 [Compound 34] , report inhibition at 50 µg/mL.
Reply | 24
